Recorded Activity, one value per entry.
Test system: Cell membrane
experiment.notes: Induction of cytoplasmic membrane permeabilization in Staphylococcus aureus ATCC 33591 at 5 times MIC measured after 120 min using calcein-AM as substrate by dye based fluorescence assay relative to control
Assay type: subcellular
Only the number, expressed in %, is required.

Completed entries (count: 3):
COc1cc(/C=C2\CC/C(=C\c3ccc(OCCCN4CCCCCC4)c(OC)c3)C2=O)ccc1OCCCN1CCCCCC1.Cl.Cl    93.2
CCOc1cc(/C=C2\CC/C(=C\c3ccc(OCCCN4CCCC(C)C4)c(OCC)c3)C2=O)ccc1OCCCN1CCCC(C)C1.Cl.Cl (centres undefined)    92.7
Cl.Cl.O=C1/C(=C/c2ccc(OCCCCN3CCCCCC3)cc2)CC/C1=C\c1ccc(OCCCCN2CCCCCC2)cc1    90.3

Reported Activity for Cell membrane, given COc1cc(/C=C2\CC/C(=C\c3ccc(OCCCCN4CCCCCC4)c(OC)c3)C2=O)ccc1OCCCCN1CCCCCC1.Cl.Cl ?
89
